Listing: amyloid nucleation score of selected substances
- ASSAY NAME: amyloid nucleation score (Sup35N fusion, yeast selection) (log enrichment); library NNK1; higher = more nucleation; inactive = no reads after selection;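 also: zero at mode of non-aggregating sequences after 7 days selection at 30°C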
Kindly provide the number alone.

Please review the following examples before continuing.
SUBSTANCE: QRLGQGIGGEWPTKL
VALUE OBSERVED: 0.995
//
SUBSTANCE: SVISRIKCRASRDGLHHGNH
VALUE OBSERVED: 0.862
//
SUBSTANCE: RFYMCRLEGVPFES
VALUE OBSERVED: 0.58
//
SUBSTANCE: RFWSIDRCAWSLMGGILRYG
VALUE OBSERVED: -0.01
//
SUBSTANCE: NYFSQKWFTTGRTPRMMDMW
VALUE OBSERVED: -0.007

Query :: Suppose we examine the substance PHVFRFSFPTLILIGSFNFC ; what amyloid nucleation score value has been reported?
Result :: 3.14

Query :: What about this substance? YSYVRVIFYV
Result :: 0.145

Query :: What about this substance? RTPHVERGTGIGLEISSTEV
Result :: 0.041

Query :: What about this substance? MCPSIQCYNNYILLQRSVIR
Result :: 7.08

Query :: What about this substance? SHMMHSMAEVSFARYWDKQS
Result :: -2.46

Query :: What about this substance? TSGSCSACCLWVRGDNETFM
Result :: 7.88

Query :: What about this substance? ECRMYLLTLVARRSRNPDNC
Result :: 1.03

Query :: What about this substance? RGLTYVRVVGLARIGSACSV
Result :: 0.335
